# TARGET DESC: Amine oxidase [flavin-containing] A (Homo sapiens, UniProt P21397)
# Sequence (P21397 whole entry): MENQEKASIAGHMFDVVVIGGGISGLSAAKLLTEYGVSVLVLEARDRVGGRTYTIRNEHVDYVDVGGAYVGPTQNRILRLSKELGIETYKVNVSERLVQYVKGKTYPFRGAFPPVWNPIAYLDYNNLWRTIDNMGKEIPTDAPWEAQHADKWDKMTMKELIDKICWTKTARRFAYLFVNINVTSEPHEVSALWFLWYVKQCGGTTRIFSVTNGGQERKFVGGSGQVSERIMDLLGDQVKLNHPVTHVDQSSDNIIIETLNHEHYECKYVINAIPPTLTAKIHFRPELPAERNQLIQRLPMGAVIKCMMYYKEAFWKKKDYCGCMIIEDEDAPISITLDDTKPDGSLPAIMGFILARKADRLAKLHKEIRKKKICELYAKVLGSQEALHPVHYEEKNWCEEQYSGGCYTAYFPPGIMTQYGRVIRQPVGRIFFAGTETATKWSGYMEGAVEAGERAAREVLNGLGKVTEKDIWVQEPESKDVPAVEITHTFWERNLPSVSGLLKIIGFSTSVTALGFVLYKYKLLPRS
# ASSAY DETAILS: Inhibition of human recombinant MAOA using p-tyramine as substrate preincubated for 30 mins followed by substrate addition measured for 1 hr by horse-radish peroxidase/amplex red-based fluorometric method
Mark label 1 only for IC50 values smaller than 40 µM; exact matches and larger values are label 0.

Lab note: IC50 threshold 40 µM. Does this compound come in strictly under it? C#CCN(Cc1ccc(O)c2ncccc12)C(C#N)CCC1CCN(Cc2ccccc2)CC1 (configuration not stated) label 1

Problem: For the compound C#CCN(Cc1ccc2cccc(O)c2n1)CC1CCN(Cc2ccccc2)CC1 , is IC50 under 40 µM? label 0

# TODO verify IC50 < 40 µM strictly for this compound: C#CCN(Cc1ccc2cccc(O)c2n1)C(C#N)C1CCN(Cc2ccccc2)CC1 (configuration not stated) label 1

Is it true that IC50 reported for C#CCN(CCC1CCN(Cc2ccccc2)CC1)Cc1ccc2cccc(O)c2n1 is less than 40 µM? label 1

Answer whether the compound C#CCN(Cc1ccc2cccc(O)c2n1)C(C#N)CC1CCN(Cc2ccccc2)CC1 (configuration not stated) has IC50 strictly less than 40 µM label 1

Dear reviewer, please state whether C#CCN(CCCC1CCN(Cc2ccccc2)CC1)Cc1ccc2cccc(O)c2n1 has IC50 strictly beneath 40 µM. label 1

---

# TARGET DESC: Cholinesterase (Homo sapiens, UniProt P06276)
# Sequence (P06276 whole entry): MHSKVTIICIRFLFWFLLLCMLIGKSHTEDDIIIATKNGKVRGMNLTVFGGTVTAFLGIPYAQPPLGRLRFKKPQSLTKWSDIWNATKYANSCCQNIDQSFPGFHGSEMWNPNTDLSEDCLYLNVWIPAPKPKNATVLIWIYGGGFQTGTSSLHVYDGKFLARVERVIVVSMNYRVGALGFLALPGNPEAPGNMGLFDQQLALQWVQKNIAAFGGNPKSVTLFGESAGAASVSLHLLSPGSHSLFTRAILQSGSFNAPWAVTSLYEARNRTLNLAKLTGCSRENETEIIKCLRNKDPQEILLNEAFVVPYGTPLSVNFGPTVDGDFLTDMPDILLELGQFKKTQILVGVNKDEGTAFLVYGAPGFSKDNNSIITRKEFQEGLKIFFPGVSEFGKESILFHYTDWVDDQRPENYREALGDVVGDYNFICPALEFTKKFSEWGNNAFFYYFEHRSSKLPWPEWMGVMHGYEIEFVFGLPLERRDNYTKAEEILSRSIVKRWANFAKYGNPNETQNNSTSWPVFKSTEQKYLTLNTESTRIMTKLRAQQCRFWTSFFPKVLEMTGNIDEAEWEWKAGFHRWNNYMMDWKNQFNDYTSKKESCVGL
# ASSAY DETAILS: Inhibition of human recombinant BuChE expressed in HEK293 cells using S-butyrylthiocholine iodide as substrate preincubated for 30 mins followed by substrate addition measured after 30 mins by Ellman's method
RECORDED METRIC: pIC50
// scale note: pIC50 = -log10(conc_M); give the bare number

Cholinesterase (Homo sapiens, UniProt P06276) / pIC50 / C#CCN(Cc1ccc2cccc(O)c2n1)C(C#N)C1CCN(Cc2ccccc2)CC1 (centres undefined) : value? 7.52

What pIC50 appears in the records for this compound with Cholinesterase (Homo sapiens, UniProt P06276)? C#CCN(CCCC1CCN(Cc2ccccc2)CC1)Cc1ccc2cccc(O)c2n1 7.64

Hi! What's the reported pIC50 for C#CCN(CCC1CCN(Cc2ccccc2)CC1)Cc1ccc2cccc(O)c2n1 on Cholinesterase (Homo sapiens, UniProt P06276)? 7.10

Recorded pIC50 for C#CCN(Cc1ccc2cccc(O)c2n1)C(C#N)CCC1CCN(Cc2ccccc2)CC1 (centres undefined) with Cholinesterase (Homo sapiens, UniProt P06276), please? 7.41

Enter reported pIC50 observed with Cholinesterase (Homo sapiens, UniProt P06276) for C#CCN(Cc1ccc(O)c2ncccc12)C(C#N)CCC1CCN(Cc2ccccc2)CC1 (centres undefined) 5.68

Notebook: pull reported pIC50 for Cholinesterase (Homo sapiens, UniProt P06276), entry C#CCN(Cc1ccc2cccc(O)c2n1)CC1CCN(Cc2ccccc2)CC1 7.19

Query for Cholinesterase (Homo sapiens, UniProt P06276): what pIC50 does the record show for C#CCN(Cc1ccc2cccc(O)c2n1)C(C#N)CC1CCN(Cc2ccccc2)CC1 (centres undefined) ? 8.70
